For each of the substances below, state its Log EC50.
tested on: Primate GnRH-2 receptor; assay: c-fos-luc luciferase activation by agonists, CV-1 cells expressing Primate GnRH-2 receptor; assay type: cell-based, Primates; settings: log of EC50 (negative values); luciferase activation; average of three independent experiments
[ ]: non-standard residue; d: D form. pGlu = O=C1CC[C@@H](C(=O)O)N1
One number for each entry.

Some substances with recorded Log EC50:
pGlu-His-Trp-Ser-His-D-Ala-Leu-Tyr-Pro-Gly-NH2 ([pGlu]HWSH[dA]LYPG-NH2; SMILES CC(C)C[C@H](NC(=O)[C@@H](C)NC(=O)[C@H](Cc1c[nH]cn1)NC(=O)[C@H](CO)NC(=O)[C@H](Cc1c[nH]c2ccccc12)NC(=O)[C@H](Cc1c[nH]cn1)NC(=O)[C@@H]1CCC(=O)N1)C(=O)N[C@@H](Cc1ccc(O)cc1)C(=O)N1CCC[C@H]1C(=O)NCC(N)=O) [[D-Ala^6, Leu^7]GnRH-2] : −7.95
pGlu-His-Trp-Ser-His-D-Ala-Tyr-Trp-Pro-Gly-NH2 ([pGlu]HWSH[dA]YWPG-NH2; SMILES C[C@@H](NC(=O)[C@H](Cc1c[nH]cn1)NC(=O)[C@H](CO)NC(=O)[C@H](Cc1c[nH]c2ccccc12)NC(=O)[C@H](Cc1c[nH]cn1)NC(=O)[C@@H]1CCC(=O)N1)C(=O)N[C@@H](Cc1ccc(O)cc1)C(=O)N[C@@H](Cc1c[nH]c2ccccc12)C(=O)N1CCC[C@H]1C(=O)NCC(N)=O) [[D-Ala^6, Tyr^7, Trp^8]GnRH-2] : −7.57

Continue with the next substance.
Problem: I would be grateful if you could share the reported Log EC50 for pGlu-His-Trp-Ser-Leu-D-Ala-Trp-Tyr-Pro-Gly-NH2 ([pGlu]HWSL[dA]WYPG-NH2; SMILES CC(C)C[C@H](NC(=O)[C@H](CO)NC(=O)[C@H](Cc1c[nH]c2ccccc12)NC(=O)[C@H](Cc1c[nH]cn1)NC(=O)[C@@H]1CCC(=O)N1)C(=O)N[C@H](C)C(=O)N[C@@H](Cc1c[nH]c2ccccc12)C(=O)N[C@@H](Cc1ccc(O)cc1)C(=O)N1CCC[C@H]1C(=O)NCC(N)=O) [[Leu^5, D-Ala^6]GnRH-2] .
Result: −7.35

###

test system: Primate GnRH-2 receptor; assay: c-fos-luc luciferase activation by agonists, CV-1 cells expressing Primate GnRH-2 receptor; format: cell-based, Primates; conditions: log of EC50 (negative values); luciferase activation; average of three independent experiments
[ ]: non-standard residue; d: D form. pGlu = O=C1CC[C@@H](C(=O)O)N1
For each of the substances below, state its Log EC50.
Give bare numbers.

p-Glu-His-Trp-Ser-His-D-Lys-Trp-Tyr-Pro-Gly-NH2 ([pGlu]HWSH[dK]WYPG-NH2; SMILES NCCCC[C@@H](NC(=O)[C@H](Cc1c[nH]cn1)NC(=O)[C@H](CO)NC(=O)[C@H](Cc1c[nH]c2ccccc12)NC(=O)[C@H](Cc1c[nH]cn1)NC(=O)[C@@H]1CCC(=O)N1)C(=O)N[C@@H](Cc1c[nH]c2ccccc12)C(=O)N[C@@H](Cc1ccc(O)cc1)C(=O)N1CCC[C@H]1C(=O)NCC(N)=O) [[D-Lys^6]GnRH-2] : −8.57

Continue with the next substance.
Problem: I would be grateful if you could share the reported Log EC50 for pGlu-His-Trp-Ser-Tyr-D-Ala-Trp-Leu-Pro-Gly-NH2 ([pGlu]HWSY[dA]WLPG-NH2; SMILES CC(C)C[C@H](NC(=O)[C@H](Cc1c[nH]c2ccccc12)NC(=O)[C@@H](C)NC(=O)[C@H](Cc1ccc(O)cc1)NC(=O)[C@H](CO)NC(=O)[C@H](Cc1c[nH]c2ccccc12)NC(=O)[C@H](Cc1c[nH]cn1)NC(=O)[C@@H]1CCC(=O)N1)C(=O)N1CCC[C@H]1C(=O)NCC(N)=O) [[Tyr^5, D-Ala^6, Leu^8]GnRH-2] .
Result: −7.90

Numbers sourced from patent US7285528B2.
